System: MDA 231 cells
measurement-description: Cell growth inhibition: MTT assay, MDA 231 (ER- breast carcinoma)
Assay type: cell-based
experimental-conditions: Homo sapiens, MDA-MB-231; 72 hours, 3.3 μM; read-out: % inhibition of cell growth compared to no drug control
For each of the compounds below, state its inhibition at 3.3 µM.
Supply the numeric figure in %, leaving out any unit text.

Endpoint output: inhibition at 3.3 µM of `C/C(=C/C=C/C(C)=C/C(=O)Nc1ccc(O)cc1)c1cc(Br)cc(Br)c1` . Value?
86

Item: `C/C(=C/C=C/C(C)=C/C(=O)Nc1ccc(O)cc1)c1ccccc1`
87

Item: `COc1cc(OC)cc(\C(C)=C/C=C/C(C)=C/C(=O)Nc2ccc(O)cc2)c1`
61

Item: `CC(/C=C/C=C\c1cc(C(F)(F)F)cc(C(F)(F)F)c1)=C\C(=O)Nc1ccc(O)cc1`
68

Item: `CC(/C=C/C(C)=C/C(=O)Nc1ccc(O)cc1)=C(\C)c1cc(C(F)(F)F)cc(C(F)(F)F)c1`
48

Item: `C/C(=C/C=C/C(C)=C/C(=O)Nc1ccc(O)cc1)c1cc(C(F)(F)F)cc(C(F)(F)F)c1`
62

Item: `C/C(=C/C=C/C(C)=C/C(=O)Nc1ccc(O)cc1)c1cc(C)cc(C)c1`
82

Where do the numbers come from? From patent US6310247A.
